# System: AURKC;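 also: KINOMEscan kinase panel screen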
# condition_notes: concentration: 1 μM,replicates: in singlicate; n = 1
Everything with %Inh lower than 40% is criterion not met; everything else, including exactly 40%, is criterion met.

Previously resolved entries follow.
Cl.Oc1cc(-c2nc(-c3ccccc3)[nH]c2-c2ccncc2)ccc1Cl; criterion not met
CC(C)N1C(=O)Cc2cc(Nc3ncc(C(F)(F)F)c(NCc4cccc(S(C)(=O)=O)c4)n3)ccc21; criterion met
CCn1c(-c2nonc2N)nc2c(C#CC(C)(C)O)nc(OCCN)cc21.Cl.Cl; criterion not met
Cc1cc2cn[nH]c2cc1-c1cccc2c(N)c(C(N)=O)nnc12; criterion met

[Q] Hi, just wondering whether C[C@H]1Oc2cc(cnc2N)-c2c(nn(C)c2C#N)CN(C)C(=O)c2ccc(F)cc21 shows %Inh of 40% or higher.
[A] criterion not met

[Q] Identify whether the reported %Inh of the following molecule is 40% or greater: Cc1ccc2c(-c3ccncc3)c(-c3ccc(F)cc3)nn2c1.Cl
[A] criterion not met

[Q] I'd appreciate it if you could say whether Cl.Cl.Nc1nc(-c2ccc3c(N)n[nH]c3c2)cc(N2CCCC(NC(=O)c3ccccc3)C2)n1 (stereo not drawn) has %Inh at least equal to 40%.
[A] criterion met

[Q] State whether the measured %Inh reaches 40%, counting equality as reaching it, for Nc1nc(Nc2ccccc2)cc(-c2ccc3c(N)n[nH]c3c2)n1
[A] criterion met

[Q] Determine whether measured %Inh meets or exceeds 40% for O=C(NCCCN1CCOC1=O)c1cnc(NCc2cc(Cl)ccc2Cl)nc1NC1CCCC1
[A] criterion not met

The reported measurements were obtained from paper PMC5540273.
